Biological target: PapD (Escherichia coli)
Construct: (A) NAME/KEY: mat_; made in house; Lindberg et al. 1989
Sequence (P15319 22-239): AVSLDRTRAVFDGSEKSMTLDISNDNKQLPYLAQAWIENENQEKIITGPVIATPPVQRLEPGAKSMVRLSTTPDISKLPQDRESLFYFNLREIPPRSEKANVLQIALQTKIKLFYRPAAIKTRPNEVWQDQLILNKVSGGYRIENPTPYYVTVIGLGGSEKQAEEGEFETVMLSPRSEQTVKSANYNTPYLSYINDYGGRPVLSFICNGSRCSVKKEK
Experiment: ELISA: PapD binding to peptides coated on microtiter wells
Design: species or system E. coli
Details: peptide coated on microtiter wells, ELISA with anti-PapD antiserum
EXPERIMENTAL ENDPOINT: binding of PapD to immobilized peptide

// worked examples, binding of PapD to immobilized peptide included
H-SGSMTMVLSFP-OH [G1′-11′WT, NH2-SGSMTMVLSFP-COOH]    binds
NH2-GILNGGDFQTTASMAMIYN-COOH (H-GILNGGDFQTTASMAMIYN-OH) [F1′-19′WT]    moderately
NH2-YALAPNAVIPTSLALL-COOH (H-YALAPNAVIPTSLALL-OH) [MS, random hydrophobic peptide, reference compound]    no binding
NH2-KKLEAGNYFAVLGFRVDYE-COOH (H-KKLEAGNYFAVLGFRVDYE-OH) [H1′-19′ WT]    no binding
NH2-KPGELSGSMTMVLSFP-COOH (H-KPGELSGSMTMVLSFP-OH) [G1′-16′WT]    binds

Now turn to the next substance.
Incoming: Give recorded binding of PapD to immobilized peptide. H-QNLIAGPFSATATLVASYS-OH [E1′-19′WT, NH2-QNLIAGPFSATATLVASYS-COOH]
Outgoing: moderately

These data points were gathered from patent US6596504B2.
